- TARGET_SYSTEM: T1, Fusion protein of extracellular domain of cynomolgus monkey TIGIT and mouse IgG2a Fc fragment (cynomolgus … (cynomolgus monkey))
- T1 construct: The entry includes the signal peptide (limits not recoverable) and the mouse IgG2a Fc
- T1 sequence (chain, as listed by the source limits assumed): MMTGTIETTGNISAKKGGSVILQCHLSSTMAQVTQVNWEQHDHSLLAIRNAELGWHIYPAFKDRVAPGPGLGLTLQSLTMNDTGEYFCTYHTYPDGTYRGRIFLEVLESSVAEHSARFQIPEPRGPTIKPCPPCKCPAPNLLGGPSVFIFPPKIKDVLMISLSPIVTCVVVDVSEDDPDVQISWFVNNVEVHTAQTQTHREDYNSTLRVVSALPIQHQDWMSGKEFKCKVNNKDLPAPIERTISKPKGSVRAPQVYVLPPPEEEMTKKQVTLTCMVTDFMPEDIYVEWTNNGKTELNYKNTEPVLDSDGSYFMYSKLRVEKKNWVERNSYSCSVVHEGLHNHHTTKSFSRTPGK
- ASSAY_SUMMARY: ELISA, cynomolgus monkey TIGIT ECD-mFc
VALUE_KIND: EC50 (nM)
One number for each entry, in nM.

TIGIT-005-H2L1a (antibody, V domains shown, Humanized anti-TIGIT antibody with NG-site mutation in VL) VH: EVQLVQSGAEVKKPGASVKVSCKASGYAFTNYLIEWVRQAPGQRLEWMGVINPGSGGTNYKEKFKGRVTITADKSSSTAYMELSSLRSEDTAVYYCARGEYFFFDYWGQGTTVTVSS VL: DIVMTQSPDSLAVSLGERATINCKASQHVSQGVAWYQHKPGQSPKLLIYSASYRYTGVPDRFSGSGSGTDFTLTISSLQAEDVAVYYCQQHYNTPHTFGGGTKVEIK ... 0.0357
TIGIT-006-H3L2 (antibody, V domains shown, Humanized anti-TIGIT antibody) VH: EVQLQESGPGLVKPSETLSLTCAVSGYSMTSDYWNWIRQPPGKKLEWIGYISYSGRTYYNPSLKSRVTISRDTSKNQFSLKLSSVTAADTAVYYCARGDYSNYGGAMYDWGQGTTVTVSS VL: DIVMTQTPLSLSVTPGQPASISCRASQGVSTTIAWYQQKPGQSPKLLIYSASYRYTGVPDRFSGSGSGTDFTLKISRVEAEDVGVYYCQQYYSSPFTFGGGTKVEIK ... 7.44

// next item, EC50 requested
Given TIGIT-005-H2L1c (antibody, V domains shown, Humanized anti-TIGIT antibody with NG-site mutation in VL) VH: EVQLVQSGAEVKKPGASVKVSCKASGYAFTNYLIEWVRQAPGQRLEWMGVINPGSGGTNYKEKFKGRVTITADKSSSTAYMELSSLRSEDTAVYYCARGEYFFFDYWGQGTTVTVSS VL: DIVMTQSPDSLAVSLGERATINCKASQHVSDGVAWYQHKPGQSPKLLIYSASYRYTGVPDRFSGSGSGTDFTLTISSLQAEDVAVYYCQQHYNTPHTFGGGTKVEIK , state its recorded EC50.
0.0296
